- Test system: IGROV-1
- Assay Protocol: NCI tumour cell line growth inhibition, 48 h
The source made the active and inactive calls. Rule as the data show it: active = GI50 up to about 1.1 µM and inactive = higher.
Allowed answers: 1.0 = active, 0.0 = inactive

# count of solved cases: 8
COc1ccc(C2CC(c3ccc4ccccc4c3O)=NN2)cc1OC (configuration not stated) ... 0.0
N#Cc1ccnc(C(=O)N2CCCC2C(=O)O)c1 (configuration not stated) ... 0.0
CCNC1=C(NC(=O)c2ccc(OC)cc2)C(=O)c2ccccc2C1=O ... 0.0
Cc1cc(NS(=O)(=O)c2ccc(NC(=O)c3ccc(Cl)c4c(Nc5ccc(S(=O)(=O)Nc6cc(C)on6)cc5)c5ccccc5nc34)cc2)no1 ... 0.0
CN(C)CCN(C)c1ccc2c(=O)n(CCN(C)C)c(=O)n3c4ccccc4c(=O)c1c23 ... 1.0
C=C1C(=O)O[C@@H]2C[C@@H]3[C@]4(CC[C@]5(C)[C@@H]([C@H](C)CC/C=C(\C)C=O)CC[C@@]35C)C[C@]4(CCC(=O)OC)[C@H]12 ... 0.0
CCc1cccc(CC)c1NC(=O)CC1SC(N)=NC1=O (configuration not stated) ... 0.0
N/C(S)=N/N=C/c1ccc(O)cn1 ... 0.0

Let's switch to this compound now.
Data request: Please state the recorded outcome for this compound: Oc1cc(O)c2c(c1)OC(c1ccc(O)c(O)c1)C(O)C2c1c(O)cc(O)c2c1OC(c1ccc(O)c(O)c1)C(O)C2 (configuration not stated)
Data returned: 0.0

Hello, the source for this data is ChEMBL document CHEMBL1201862, in case you need it.
